molecular target: mouse B6 class I antigens (H-2^b: D^b or K^b) on RMA-S cells (mouse); experiment: binding of 9mer peptide to mouse B6 (H-2^b) class I antigens, RMA-S cell assay
Readout: Binding Affinity to Mouse MHC Class I (%)
Numbers only, in %.

Below, each entry is followed by its recorded Binding Affinity to Mouse MHC Class I result.
In [3]: df
Out[3]:
                                 binder                                readout  unit_annotation  measured_result
0  APYLPSCLE [WT1 peptide P131-139 (…)]  Binding Affinity to Mouse MHC Class I                %                1
1  SQASSGQAR [WT1 peptide P118-126 (…)]  Binding Affinity to Mouse MHC Class I                %                2

Okay, here is my list. What is Binding Affinity to Mouse MHC Class I for each of these?
1. FPNAPYLPS [WT1 peptide P128-136 (…)]
2. PSQASSGQA [WT1 peptide P117-125 (…)]

stdout:
[1, 2]
